MEASURED ON: T1, recombinant human CD47 extracellular domain (ECD), His-tagged, dimer (human, UniProt Q08722 19-141)
T1 construct: Dimeric fraction of the same His-tagged ECD; also called His-tagged CD47-ECD dimer protein
MEASUREMENT DESCRIPTION: MSD; CD47-ECD dimer binding to captured SIRP alpha-Fc, mAb 10 µg/ml
PROPERTY MEASURED: % SIRP alpha Inhibition (%)

1) C47B221 (antibody, V domains shown, human IgG2sigma/kappa) VH: EVQLVQSGAEVKKPGESLKISCKGSGYSFTDYWIGWVRQMPGKGLEWMGIIYPGDSDTRYSPSFQGQVTISADKSISTAYLQWSSLKASDTAVYYCARVGRFASHQLDYWGQGTLVTVSS VL: EIVLTQSPATLSLSPGERATLSCRASQSVNKALAWYQQKPGQAPRLLIYGASNRATGIPARFSGSGSGTDFTLTISSLEPEDFAVYYCQQGKGWPFTFGQGTKVEIK = 95
2) C47B228 (antibody, V domains shown, human IgG2sigma/kappa) VH: EVQLVQSGAEVKKPGESLKISCKGSGYSFDDYWIGWVRQMPGKGLEWMGIIYPGDSDTRYSPSFQGQVTISADKSISTAYLQWSSLKASDTAVYYCARVGRFASHQLDYWGQGTLVTVSS VL: EIVLTQSPATLSLSPGERATLSCRASQSVSNRQAWYQQKPGQAPRLLIHSASNRATGIPARFSGSGSGTDFTLTISSLEPEDFAVYYCQQGRSWPFTFGQGTKVEIK = 99.3
3) C47B236 (antibody, V domains shown, human IgG2sigma/kappa) VH: EVQLVQSGAEVKKPGESLKISCKGSGYSFKDDWIGWVRQMPGKGLEWMGIIYPGDSDTRYSPSFQGQVTISADKSISTAYLQWSSLKASDTAVYYCARVGRFASHQLDYWGQGTLVTVSS VL: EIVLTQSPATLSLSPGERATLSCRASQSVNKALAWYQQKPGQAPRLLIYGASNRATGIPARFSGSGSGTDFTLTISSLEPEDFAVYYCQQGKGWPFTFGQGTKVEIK = 9.8
4) C47B239 (antibody, V domains shown, human IgG2sigma/kappa) VH: EVQLVQSGAEVKKPGESLKISCKGSGYSFTSYWIGWVRQMPGKGLEWMGIIYPGDSDTRYSPSFQGQVTISADKSISTAYLQWSSLKASDTAMYYCARVGRFASHQLDYWGQGTLVTVSS VL: EIVLTQSPATLSLSPGERATLSCRASQSVSNRLAWYQQKPGQAPRLLIYGASNRATGIPARFSGSGSGTDFTLTISSLEPEDFAVYYCQQGRSWPFTFGQGTKVEIK = 96.7
5) C47B234 (antibody, V domains shown, human IgG2sigma/kappa) VH: EVQLVQSGAEVKKPGESLKISCKGSGYSFDNYWIGWVRQMPGKGLEWMGIIYPGDSDTRYSPSFQGQVTISADKSISTAYLQWSSLKASDTAVYYCARVGRFASHQLDYWGQGTLVTVSS VL: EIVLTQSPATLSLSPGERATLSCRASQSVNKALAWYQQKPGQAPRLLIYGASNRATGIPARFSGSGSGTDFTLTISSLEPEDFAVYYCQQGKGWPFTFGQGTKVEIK = 86.6
